# Target desc: Cytochrome P450 2C9 (Homo sapiens) (UniProt P11712)
# Sequence (P11712 whole entry, looked up): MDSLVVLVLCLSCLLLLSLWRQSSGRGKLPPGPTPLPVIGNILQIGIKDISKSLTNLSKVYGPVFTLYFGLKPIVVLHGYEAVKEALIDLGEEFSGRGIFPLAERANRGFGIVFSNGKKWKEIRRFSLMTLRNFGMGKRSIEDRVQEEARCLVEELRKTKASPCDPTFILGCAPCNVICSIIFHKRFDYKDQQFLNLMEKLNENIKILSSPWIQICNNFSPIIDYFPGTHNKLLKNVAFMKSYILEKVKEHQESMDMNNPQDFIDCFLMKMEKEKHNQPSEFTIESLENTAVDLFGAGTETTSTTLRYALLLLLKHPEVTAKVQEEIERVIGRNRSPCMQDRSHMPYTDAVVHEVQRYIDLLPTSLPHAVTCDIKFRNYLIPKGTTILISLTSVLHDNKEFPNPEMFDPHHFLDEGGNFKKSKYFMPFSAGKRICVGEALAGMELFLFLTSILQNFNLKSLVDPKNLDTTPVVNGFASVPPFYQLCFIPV
# Assay text: Cytochrome panel assay with activity outcomes
# Test conditions: recombinant CYP, pro-luciferin dealkylation, luminescence, p450-cyp2c9; series mostly up to 57.1 µM
The campaign covered roughly 16,000 compounds. About 4,000 (25%) were called active. Roughly 26% stayed inconclusive and do not appear here. These entries were drawn from the full list.
Quantity measured: AC50

# annotated cases, reported AC50 shown
| Compound | Result |
| --- | --- |
| COCC(=O)N1CCC[C@@]2(CCN(c3ncccn3)C2)C1 | inactive |
| CN1CCN(c2ncc3nc(-c4cn(C)c5ccccc45)c(=O)n(-c4ccccc4)c3n2)CC1 | inactive |
| CCN(CC)S(=O)(=O)c1ccc(C(=O)NC2=C(C(=O)OC)SCC2)cc1 | 2 µM (active) |
| CCOC(=S)NC(=O)c1sc2ccccc2c1Cl | 0.0631 µM (active) |
| CCCCOc1cc(C(=O)NCCN(CC)CC)c2ccccc2n1 | inactive |
| CCc1ccc2c(c1)c(N=NC1=NC(=O)CS1)c(O)n2CC | 12.6 µM (active) |

Query: Would you kindly share the measured AC50 for `S=C1N[C@H](c2ccccc2)N[C@H](c2ccccc2)S1` ?
Reply: 2 µM (active)

Query: Would you kindly share the measured AC50 for `O=C(NC(=S)N(CCCCO)C1CCCCC1)c1sc2ccccc2c1Cl` ?
Reply: 7.94 µM (active)

Query: Would you kindly share the measured AC50 for `COC(=O)c1[nH]c2cc(OC)ccc2c1NC(=O)c1ccc2c(c1)OCO2` ?
Reply: 3.55 µM (active)

Query: Would you kindly share the measured AC50 for `Cn1cc(-c2nc3cnc(N4CCOCC4)nc3n(C3CC3)c2=O)c2ccccc21` ?
Reply: inactive

Query: Would you kindly share the measured AC50 for `Cc1cc(O)c(-c2cc(O)c(C)cc2O)cc1O` ?
Reply: 1.26 µM (active)

Query: Would you kindly share the measured AC50 for `Cc1ccc(OCC(=O)NNC(=O)c2cc3ccccc3o2)cc1` ?
Reply: inactive

Query: Would you kindly share the measured AC50 for `CN1Cc2c(N)cccc2[C@H](c2ccccc2)C1` ?
Reply: inactive

Query: Would you kindly share the measured AC50 for `CC(C)Cc1nnc(NC(=O)c2ccc([N+](=O)[O-])cc2)s1` ?
Reply: inactive

Values were extracted from PubChem BioAssay AID1851.
